# target.system: Mannose-6-phosphate isomerase (Homo sapiens) (UniProt P34949)
# Sequence (P34949 whole entry, looked up): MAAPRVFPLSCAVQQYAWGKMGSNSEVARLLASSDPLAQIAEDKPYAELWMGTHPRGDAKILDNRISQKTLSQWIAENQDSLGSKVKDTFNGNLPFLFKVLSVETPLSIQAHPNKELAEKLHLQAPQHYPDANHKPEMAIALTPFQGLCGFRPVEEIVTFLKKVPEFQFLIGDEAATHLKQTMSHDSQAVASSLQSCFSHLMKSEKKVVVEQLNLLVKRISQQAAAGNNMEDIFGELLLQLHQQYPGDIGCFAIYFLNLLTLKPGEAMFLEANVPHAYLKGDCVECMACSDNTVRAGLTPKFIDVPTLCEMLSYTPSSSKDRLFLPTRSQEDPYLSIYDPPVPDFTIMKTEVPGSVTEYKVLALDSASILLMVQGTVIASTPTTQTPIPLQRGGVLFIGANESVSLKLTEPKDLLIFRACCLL
# procedure.text: MPI inhibition at elevated mannose 6-phosphate – biochemical, fluorescence intensity, high mannose 6-phosphate, primary screen (AID 1220)
# setup.conditions: recombinant PMI enzyme, coupled fluorescence intensity; at 20 µM; stronger effect = higher value
Out of some 190,000 compounds screened, about 1,300 (0.68%) were called active. What follows is part of a selection rich in actives, with near analogues and random picks from the rest.
# key: entry, value: inhibition

# compound, target.system, inhibition [%]
data = [
    ("CCc1cccc(NC(=O)c2snc3c(=O)[nH]cnc23)c1", "Mannose-6-phosphate isomerase (Homo sapiens) (UniProt P34949)", 7.2),
    ("O=C(COc1cccc(C(F)(F)F)c1)N1CCN(c2ccccc2O)CC1", "Mannose-6-phosphate isomerase (Homo sapiens) (UniProt P34949)", -5.8),
    ("CC1=C(C(=O)Nc2ccccc2)C(c2ccccc2[N+](=O)[O-])NC(=O)N1 (centres undefined)", "Mannose-6-phosphate isomerase (Homo sapiens) (UniProt P34949)", 53.3),
    ("COc1cc(-c2ccc(NC(=O)CN3CCC(C)CC3)c(OC)c2)ccc1NC(=O)CN1CCC(C)CC1", "Mannose-6-phosphate isomerase (Homo sapiens) (UniProt P34949)", 21),
    ("O=C(O)C1CC(O)CN1c1nc(Cl)ccc1[N+](=O)[O-] (centres undefined)", "Mannose-6-phosphate isomerase (Homo sapiens) (UniProt P34949)", 64.1),
    ("COC(=O)C1=C(C)NC(C)=C(C(=O)OC)C1c1ccccc1[N+](=O)[O-]", "Mannose-6-phosphate isomerase (Homo sapiens) (UniProt P34949)", 79.4),
    ("COc1ccccc1CN1CCCCC1C(=O)O (centres undefined)", "Mannose-6-phosphate isomerase (Homo sapiens) (UniProt P34949)", -6.1),
    ("O=c1c(N2CCOCC2)nsnc1N1CCOCC1", "Mannose-6-phosphate isomerase (Homo sapiens) (UniProt P34949)", 53.3),
    ("O=C(O)CNc1nc(Cl)ccc1[N+](=O)[O-]", "Mannose-6-phosphate isomerase (Homo sapiens) (UniProt P34949)", 13.4),
    ("O=C(C[n+]1ccc(-c2cc(C(=O)Nc3cccc(C(F)(F)F)c3)c3ccccc3n2)cc1)c1cccc([N+](=O)[O-])c1", "Mannose-6-phosphate isomerase (Homo sapiens) (UniProt P34949)", -6.2),
    ("O=C(CN1CCCCCC1)Nc1ccc(F)c(F)c1", "Mannose-6-phosphate isomerase (Homo sapiens) (UniProt P34949)", -9.6),
    ("O=C1C(c2ccc(F)cc2)N(Cc2ccc3c(c2)OCO3)C(=O)CN1C1CCCC1 (centres undefined)", "Mannose-6-phosphate isomerase (Homo sapiens) (UniProt P34949)", 7.2),
    ("CC1(C)CC(=O)C2=C(C1)NC(=O)NC2c1ccccc1 (centres undefined)", "Mannose-6-phosphate isomerase (Homo sapiens) (UniProt P34949)", -2.6),
    ("O=C(COc1cccc(C(F)(F)F)c1)N1CCN(c2ccc(O)cc2)CC1", "Mannose-6-phosphate isomerase (Homo sapiens) (UniProt P34949)", 50.6),
]
